The origin of these recorded values is ChEMBL document CHEMBL1143581.

Reported MIC values for the following compounds.
- Test system: Enterococcus faecium
- methodDescription: Minimum inhibitory concentration against Enterococcus faecium […]
- Format: functional
The figure you give is taken to be in µM; do not add the unit.

Given the compound COc1ccc(C(=O)/C=C/c2cc(-c3ccccc3OC)ccc2N2CCN(C)CC2)c(F)c1 , what is its reported MIC? 20

Given the compound COc1ccc(C(=O)/C=C/c2cc(-c3cc(C)cc(C)c3)ccc2OCCN(C)C)c(CN(C)C)c1 , what is its reported MIC? 5

Given the compound Cc1cc(C)cc(-c2ccc(N3CCN(C)CC3)c(/C=C/C(=O)c3cccc(NCCN(C)C)c3)c2)c1 , what is its reported MIC? 5

Given the compound CN(C)CCNc1ccc(C(=O)/C=C/c2cccc(Oc3ccccc3)c2)cc1 , what is its reported MIC? 5

Given the compound CN(C)Cc1ccc(C(=O)/C=C/c2ccc(Cl)cc2Cl)cc1 , what is its reported MIC? 75

###

Reported MIC values for the following compounds.
- Test system: Enterococcus faecium
- methodDescription: Minimum inhibitory concentration against Enterococcus faecium 17501 (vancomycin-resistant clinical isolate)
- Format: functional

CN(C)CCNc1ccc(C(=O)/C=C/c2ccc(Cl)cc2)cc1
75 µM

Given the compound COc1ccc(C(=O)/C=C/c2cc(-c3cc(C)cc(C)c3)ccc2OCCN(C)C)cc1CN(C)C , what is its reported MIC? 20 µM

Given the compound COc1ccc(C(=O)/C=C/c2cc(-c3ccccc3)ccc2OCCN(C)C)c(F)c1 , what is its reported MIC? 10 µM

Given the compound Cc1cc(C)cc(-c2ccc(OCCN(C)C)c(/C=C/C(=O)c3cccc(NCCN(C)C)c3)c2)c1 , what is its reported MIC? 10 µM

Given the compound COc1ccc(C(=O)/C=C/c2cc(-c3cccc(C(F)(F)F)c3)ccc2N2CCN(C)CC2)c(F)c1 , what is its reported MIC? 5 µM

Given the compound Cc1cc(C)cc(-c2ccc(N3CCNCC3)c(/C=C/C(=O)c3cccc(NCCN(C)C)c3)c2)c1 , what is its reported MIC? 5 µM

Given the compound CN(C)CCNc1ccc(C(=O)/C=C/c2cccc(Oc3ccccc3)c2)cc1 , what is its reported MIC? 20 µM

Given the compound CN(C)Cc1ccc(C(=O)/C=C/c2ccc(Cl)cc2Cl)cc1 , what is its reported MIC? 40 µM

Given the compound Cc1cc(C)cc(-c2ccc(OCCN(C)C)c(/C=C/C(=O)c3ccccc3OCCN(C)C)c2)c1 , what is its reported MIC? 10 µM

###

- Tested on: Enterococcus faecium
- methodDescription: Minimum inhibitory concentration against Enterococcus faecium […]
- Assay type: functional
Response field label takes true when MIC is strictly below 20 µM and false in all other cases.

CN(C)CCOc1ccc(C(=O)/C=C/c2ccc(Cl)cc2Cl)cc1
false
Cc1cc(C)cc(-c2ccc(OCCN(C)C)c(/C=C/C(=O)c3ccccc3N)c2)c1
true
COc1ccc(C(=O)/C=C/c2cc(-c3ccccc3)ccc2CN(C)C)c(F)c1
false
Cc1cc(C)cc(-c2ccc(N3CCNCC3)c(/C=C/C(=O)c3cccc(NCCN(C)C)c3)c2)c1
true

Please state whether MIC is below 20 µM for Cc1cc(C)cc(-c2ccc(OCCN(C)C)c(/C=C/C(=O)c3cccc(OCCN(C)C)c3)c2)c1 true

###

Reported MIC values for the following compounds.
- Test system: Enterococcus faecium
- methodDescription: Minimum inhibitory concentration against Enterococcus faecium 17501 (vancomycin-resistant clinical isolate)
- Format: functional
The figure you give is taken to be in µM; do not add the unit.

COc1ccc(C(=O)/C=C/c2cc(-c3ccccc3OC)ccc2OCCN(C)C)c(F)c1
10

Given the compound COc1ccc(C(=O)/C=C/c2cc(-c3cccnc3)ccc2N2CCN(C)CC2)c(F)c1 , what is its reported MIC? 75

Given the compound COc1ccc(C(=O)/C=C/c2cc(C(C)(C)C)ccc2OCCN(C)C)c(F)c1 , what is its reported MIC? 20

Given the compound Cc1cc(C)cc(-c2ccc(OCCN(C)C)c(/C=C/C(=O)c3ccc(N)cc3)c2)c1 , what is its reported MIC? 10

Given the compound CN(C)CCNc1cccc(C(=O)/C=C/c2cc(N3CCN(C)CC3)ccc2-c2ccccc2)c1 , what is its reported MIC? 75

###

- Tested on: Escherichia coli
- methodDescription: Minimum inhibitory concentration against Escherichia coli ATCC 25922
- Assay type: functional
Reported MIC values for the following compounds.
The figure you give is taken to be in µM; do not add the unit.

Solved cases (4 shown):
Cc1cc(C)cc(-c2ccc(OCCN(C)C)c(/C=C/C(=O)c3ccc(CN(C)C)cc3)c2)c1
20
CN(C)CCNc1cccc(C(=O)/C=C/c2cc(-c3ccccc3)ccc2N2CCN(C)CC2)c1
20
COc1ccc(C(=O)/C=C/c2cc(-c3cc(C)cc(C)c3)ccc2OCCN(C)C)c(CN(C)C)c1
75
Cc1cc(C)cc(-c2ccc(N(C)CCN(C)C)c(/C=C/C(=O)c3cccc(NCCN(C)C)c3)c2)c1
20

Field: next compound
Given the compound Cc1cc(C)cc(-c2ccc(N3CCNCC3)c(/C=C/C(=O)c3cccc(NCCN(C)C)c3)c2)c1 , what is its reported MIC? 5

###

Reported MIC values for the following compounds.
- System: Escherichia coli
- methodDescription: Minimum inhibitory concentration against Escherichia coli ATCC 25922
- Format: functional
The figure you give is taken to be in µM; do not add the unit.

Solved cases (3 shown):
Cc1cc(C)cc(-c2ccc(OCCN(C)C)c(/C=C/C(=O)c3cccc(NCCN(C)C)c3)c2)c1
20
Cc1cc(C)cc(-c2ccc(OCCN(C)C)c(/C=C/C(=O)c3cccc(OCCN(C)C)c3)c2)c1
20
Cc1cc(C)cc(-c2ccc(OCCN(C)C)c(/C=C/C(=O)c3ccc(NCCN(C)C)cc3)c2)c1
20

Given the compound Cc1cc(C)cc(-c2ccc(OCCN(C)C)c(/C=C/C(=O)c3cccc(CN(C)C)c3)c2)c1 , what is its reported MIC? 40

Given the compound Cc1cc(C)cc(-c2ccc(OCCN(C)C)c(/C=C/C(=O)c3ccc(OCCN(C)C)cc3)c2)c1 , what is its reported MIC? 40

Given the compound Cc1cc(C)cc(-c2ccc(N3CCN(C)CC3)c(/C=C/C(=O)c3cccc(NCCN(C)C)c3)c2)c1 , what is its reported MIC? 10

Given the compound Cc1cc(C)cc(-c2ccc(OCCN(C)C)c(/C=C/C(=O)c3ccccc3OCCN(C)C)c2)c1 , what is its reported MIC? 40

Given the compound Cc1cc(C)cc(-c2ccc(OCCN(C)C)c(/C=C/C(=O)c3ccccc3CN(C)C)c2)c1 , what is its reported MIC? 75

Given the compound CN(C)CCNc1cccc(C(=O)/C=C/c2ccc(-c3ccccc3)cc2N2CCN(C)CC2)c1 , what is its reported MIC? 40

Given the compound COc1ccc(C(=O)/C=C/c2cc(-c3cc(C)cc(C)c3)ccc2OCCN(C)C)cc1CN(C)C , what is its reported MIC? 40

Given the compound CN(C)CCNc1cccc(C(=O)/C=C/c2cc(-c3ccccc3)cc(N3CCN(C)CC3)c2)c1 , what is its reported MIC? 75

Given the compound Cc1cc(C)cc(-c2ccc(OCCN(C)C)c(/C=C/C(=O)c3ccccc3NCCN(C)C)c2)c1 , what is its reported MIC? 10
